Tested on: 282377-053-R-J1-PDC complex spheroids, viability;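 further: spheroids exposed to compounds for 7 days before readout; percent of vehicle DMSO control viability with 100% = untreated-like growth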
TEST PROTOCOL: Anticancer human tumor 282377-053-R-J1-PDC patient-derived colon adenocarcinoma cell line growth inhibition [GQUAD]
STATED CONDITIONS: second compound 3.16 µM; first compound 0.316 µM; hits give low values
Excerpt: DNA G-quadruplex Stabilizer Agents in Combinations in Complex Spheroids A high-throughput screen of multi-cell type tumor spheroids was designed to identify active combinations of DNA G-quadruplex stabilizer agents and targeted small molecules. […] Compounds. […] If the clinical Cmax for an agent had not been determined, the highest concentration tested was 10 microM. […]
Exercise: for every item that follows, state its recorded viability, T/C.
One number for each entry, in %.

Some entries whose results are on file:
COMPOUND: Cn1ncnc1[C@H]1c2n[nH]c(=O)c3cc(F)cc(c23)N[C@@H]1c1ccc(F)cc1 + CN(C)c1ccc(Nc2c3ccc(NC(=O)CCN4CCCC4)cc3nc3cc(NC(=O)CCN4CCCC4)ccc23)cc1
viability, T/C, %: 102
//
COMPOUND: COc1ncnc(C2CC2)c1-c1ncc2cnn(Cc3ccc(-c4nc(C(F)(F)F)cn4C(C)C)cc3)c2n1 + CN(C)c1ccc(Nc2c3ccc(NC(=O)CCN4CCCC4)cc3nc3cc(NC(=O)CCN4CCCC4)ccc23)cc1
viability, T/C, %: 88.2

Please give viability, T/C for each item listed below.
1. CCCS(=O)(=O)Nc1ccc(F)c(C(=O)c2c[nH]c3ncc(-c4ccc(Cl)cc4)cc23)c1F + CN(C)c1ccc(Nc2c3ccc(NC(=O)CCN4CCCC4)cc3nc3cc(NC(=O)CCN4CCCC4)ccc23)cc1
2. Cc1cccc(N(C)C(=O)C2C(O)CCN2c2nc(C)cc(C(F)(F)F)c2C#N)c1 (stereo unspecified) + Cc1[nH]c2ccc(F)cc2c1-c1nc2c3cccnc3c3ncccc3c2[nH]1
3. CC(C)(O)C1CCC(Nc2ccc3ncc(-c4cccc(C(F)(F)F)c4)n3n2)CC1 (stereo unspecified) + Cc1[nH]c2ccc(F)cc2c1-c1nc2c3cccnc3c3ncccc3c2[nH]1
4. CC1COCCN1c1cc(-c2ccnn2C)c2ccnc(-c3ccn[nH]3)c2n1 (stereo unspecified) + Cc1[nH]c2ccc(F)cc2c1-c1nc2c3cccnc3c3ncccc3c2[nH]1
5. COc1ccc([C@@H](O)c2cc(-c3ncnc4cc(N5CCOCC5)ccc34)c(F)cc2Cl)nn1 + Cc1[nH]c2ccc(F)cc2c1-c1nc2c3cccnc3c3ncccc3c2[nH]1
6. C=CCn1c(=O)c2cnc(Nc3ccc(N4CCN(C)CC4)cc3)nc2n1-c1cccc(C(C)(C)O)n1 + Cc1[nH]c2ccc(F)cc2c1-c1nc2c3cccnc3c3ncccc3c2[nH]1

1. 68.7
2. 66.8
3. 70.7
4. 12.8
5. 47.2
6. 24

Please give viability, T/C for each item listed below.
1. COc1cccc2c1C(=O)c1c(O)c3c(c(O)c1C2=O)CC(O)(C(=O)CO)CC3OC1CC(N)C(O)C(C)O1 (stereo unspecified) + Cc1cnc(CNC(=O)c2c(=O)c3ccc(N4CCCN(C)CC4)nc3n3c2sc2ccccc23)cn1
2. COc1cc(C2c3cc4c(cc3C(OC3OC5COC(C)OC5C(O)C3O)C3COC(=O)C23)OCO4)cc(OC)c1O (stereo unspecified) + Cc1cnc(CNC(=O)c2c(=O)c3ccc(N4CCCN(C)CC4)nc3n3c2sc2ccccc23)cn1
3. Cn1ncnc1[C@H]1c2n[nH]c(=O)c3cc(F)cc(c23)N[C@@H]1c1ccc(F)cc1 + Cc1cnc(CNC(=O)c2c(=O)c3ccc(N4CCCN(C)CC4)nc3n3c2sc2ccccc23)cn1

1. 41.3
2. 49.8
3. 46.2
